Test system: SNB-75 CNS
procedure details: NCI tumour cell line growth inhibition, 48 h
Consider the following molecules and their measured TGI readings.
Please reply with the bare figure in µM and do not write the unit itself.

Use the examples below as a reference point.
>>> df
                                   molecule  measurement_unit  readout_value
0  CCCC(=O)Nc1cc([N+](=O)[O-])c([N+](=O)[O-])cc1OC                µM           30.3
1  COC(=O)c1cc(-c2ccc(-c3ccc(O)cc3)cc2)cc(-c2ccc(-c3ccc(O)cc3)cc2)c1                µM           27.8
2  O=C1/C(=C/c2ccc([N+](=O)[O-])o2)Oc2ccccc21                µM           5.77
3  COc1cc(S(=O)(=O)Nc2ccc(-c3csc(N4C(=O)C(C)SC4c4ccccc4O)n3)cc2)ccc1Cl (configuration not stated)                µM           95.7
4  COc1ccc2c(c1)C(=O)/C(=C/c1ccc([N+](=O)[O-])s1)O2                µM           2.47

Query: Param item = COc1ccc2c[n+](C)c3c4cc(OC)c(OC)cc4ccc3c2c1 ; retrieve measured TGI.
Result: 15.7

Query: TGI lookup needed for CCOC(=O)/C=C(\C(=O)OCC)n1cnc2c(N)ncnc21 , thanks.
Result: 26

Query: Could you share which TGI value was measured for COC1=CC(=O)c2c(O)ccc(O)c2C1=O ?
Result: 3.65

Query: Look at this molecule and give its reported TGI. O=Cc1[nH]c(=O)[nH]c(=O)c1CCl
Result: 75.6

Query: # TGI lookup, item CCN(CC)c1nc(N(C)C)c2ccc(OC)cc2n1
Result: 66.6

###

Tested on: K-562 leukemia
procedure details: NCI tumour cell line growth inhibition, 48 h
Here the recorded TGI is given for each entry.

>>> print(df.to_string())
                                   compound   target_system  readout_value
0  CCCCCCCCCCCCCCCCOC(=O)c1c(C)[nH]c(/C=C2\N=C(c3ccc[nH]3)C=C2OC)c1C  K-562 leukemia       > 100 µM

# input for lookup
Query: Report TGI for Cc1cc(Cl)ccc1NC(=O)CC1SC(N)=NC1=O (centres undefined) please.
Result: > 100 µM

###

Tested on: CAKI-1 renal
procedure details: NCI tumour cell line growth inhibition, 48 h; in the data active = GI50 below about 0.43 µM; inactive = the rest
Hi there, use one of these labels in your reply, thanks! active, inactive

Query: Identify the outcome logged in this assay for the compound shown: CCSc1nc(N2CCCCC2)c2cn[nH]c2n1
Result: inactive

Query: Record lookup: outcome of this test for NC(N)=N/N=C(/c1ccccc1)c1ccc(Cl)cc1 ?
Result: inactive

Query: // outcome(item) with item = Cc1cc(O)ccc1O
Result: inactive

Query: Each compound tested received a call. Report the one for C=C(C)[C@@H]1CC[C@]2(C(=O)O)CC[C@]3(C)[C@H](CC[C@@H]4[C@@]5(C)C[C@@H](CC#Cc6ccc(Br)cc6)C(=O)C(C)(C)[C@@H]5CC[C@]43C)[C@@H]12 .
Result: inactive

Query: What classification did C/C1=C\CC[C@@]2(C)O[C@@H]2C[C@@H]2[C@H](C/C(C)=C/CC1)OC(=O)C21CCN=N1 (stereo partly specified) end up with in this test?
Result: inactive

Query: Called result for COc1ccc(/C(=N\O)c2cc(OC)c(OC)c(OC)c2)c(OC)c1N
Result: inactive

Query: Hello, I am checking results. What call was entered for CCCCCCCCCCCCCCCCOC(=O)c1c(C)[nH]c(/C=C2\N=C(c3ccc[nH]3)C=C2OC)c1C ?
Result: active

Query: Recorded call for N#Cc1c(NC(=O)c2cccc3ccccc23)sc2c1CCCC2 ?
Result: active

Query: Would you mind telling me which call this test gave O=C1CSC(=S)N1Cc1cccnc1 ?
Result: inactive

Query: So what was the verdict on O=c1oc2ccc(F)cc2c(=O)n1-c1ccc(Cl)cc1F in this test?
Result: active

Query: Hello, I am checking results. What call was entered for c1ccc2c(Nc3ccc(Oc4ccc(Nc5c6ccccc6nc6ccccc56)cc4)cc3)c3ccccc3nc2c1 ?
Result: inactive
